percentage of inhibition of SDF-1-induced BRET increase, CXCR4 homo-dimers values for the binders below.
Target Desc: human CXCR4 receptor (human, UniProt P61073 1-352)
Sequence (P61073 whole entry): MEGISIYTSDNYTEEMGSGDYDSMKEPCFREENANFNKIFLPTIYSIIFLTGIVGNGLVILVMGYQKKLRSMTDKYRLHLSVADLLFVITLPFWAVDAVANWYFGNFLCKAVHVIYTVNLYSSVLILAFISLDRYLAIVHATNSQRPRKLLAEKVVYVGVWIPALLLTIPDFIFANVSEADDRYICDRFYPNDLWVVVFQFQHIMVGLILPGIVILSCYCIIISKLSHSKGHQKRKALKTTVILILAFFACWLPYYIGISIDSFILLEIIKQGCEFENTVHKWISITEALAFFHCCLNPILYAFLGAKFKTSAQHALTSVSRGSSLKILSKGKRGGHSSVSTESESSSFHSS
Protocol Description: cell-based or functional assay

Binder	Val
humanized antibody Hz515H7 VH1 D76N VL2.2 (antibody, human IgG1, kappa, V domains shown, human IgG1/kappa format; also called hz515H7VL2.2) VH: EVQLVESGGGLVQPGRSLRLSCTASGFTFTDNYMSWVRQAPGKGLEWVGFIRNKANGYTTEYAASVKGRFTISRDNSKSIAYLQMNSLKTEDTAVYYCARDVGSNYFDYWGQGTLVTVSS VL: DIVMTQSPDSLAVSLGERATMSCKSSQSLFNSRTRKNYLAWYQQKPGQPPKLLIYWASARDSGVPDRFTGSGSETYFTLTISRVQAEDVAVYYCMQSFNLRTFGQGTKVEIKR	~33%
humanized antibody Hz515H7 VH1 D76N VL2.1 (antibody, human IgG1, kappa, V domains shown, human IgG1/kappa format; also called hz515H7VL2.1) VH: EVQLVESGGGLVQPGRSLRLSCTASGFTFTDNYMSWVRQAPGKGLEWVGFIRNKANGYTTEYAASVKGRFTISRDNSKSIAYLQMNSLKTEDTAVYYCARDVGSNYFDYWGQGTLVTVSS VL: DIVMTQSPDSLAVSLGERATMSCKSSQSLFNSRTRKNYLAWYQQKPGQPPKLLIYWASARDSGVPDRFSGSGSETYFTLTISRVQAEDLAVYYCMQSFNLRTFGQGTKVEIKR	~65%
humanized antibody Hz515H7 VH1 D76N VL2.3 (antibody, human IgG1, kappa, V domains shown, human IgG1/kappa format; also called hz515H7VL2.3) VH: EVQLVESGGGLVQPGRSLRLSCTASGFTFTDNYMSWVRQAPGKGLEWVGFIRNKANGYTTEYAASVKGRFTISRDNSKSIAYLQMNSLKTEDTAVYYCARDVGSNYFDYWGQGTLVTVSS VL: DIVMTQSPDSLAVSLGERATMSCKSSQSLFNSRTRKNYLAWYQQKPGQPPKLLIYWASARDSGVPDRFTGSGSETYFTLTISSLQAEDLAVYYCMQSFNLRTFGQGTKVEIKR	~21%

Continue with the next binder.
Query string: // percentage of inhibition of SDF-1-induced BRET increase, CXCR4 homo-dimers lookup, key: humanized antibody Hz515H7 VH1 D76N VL2 (antibody, human IgG1, kappa, V domains shown, human IgG1/kappa format; Biotinylated in the IHC study; also called hz515H7VL2; hz515H7 VH D76N VL2) VH: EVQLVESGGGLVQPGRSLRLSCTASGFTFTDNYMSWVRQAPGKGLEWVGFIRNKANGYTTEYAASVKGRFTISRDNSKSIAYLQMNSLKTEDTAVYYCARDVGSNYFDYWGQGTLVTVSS VL: DIVMTQSPSSLAVSLGERATMSCKSSQSLFNSRTRKNYLAWYQQKPGQSPKLLIYWASARDSGVPARFTGSGSETYFTLTISRVQAEDLAVYYCMQSFNLRTFGQGTKVEIKR
Result string: ~88%

Numbers sourced from patent US20130031647A1.
